Provide the reported Ki of each item.
molecular target: MBP-RAMP2 ECD [L106R]-(GS)5-CLR ECD-H6 fusion protein (human) (UniProt O60895); test: FP competition vs FITC-AM W/W probe, purified ECD fusion
Sequence (O60895 other isoform, or with tags, fused parts or gaps L106R L106R): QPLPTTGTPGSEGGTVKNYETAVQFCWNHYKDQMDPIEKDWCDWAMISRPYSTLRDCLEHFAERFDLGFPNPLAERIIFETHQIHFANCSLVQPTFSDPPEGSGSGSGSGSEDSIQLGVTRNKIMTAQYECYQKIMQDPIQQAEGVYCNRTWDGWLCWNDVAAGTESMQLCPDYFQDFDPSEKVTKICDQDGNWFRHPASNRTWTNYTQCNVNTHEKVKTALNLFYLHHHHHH
Where no end group is shown, it is not given here.

Exercise: What does the record list as Ki for DKDNVAPRSKISPFGY-NH2 [AM(37-52)NH2 [Q50F]] ?
Solution: 2140 nM

Exercise: What does the record list as Ki for DKDNVAPRTWISPWGY-NH2 [AM(37-52)NH2[S45T, K46W, Q50W]] ?
Solution: 12500 nM

Exercise: What does the record list as Ki for DKDNVAPRWLIGPWGF-NH2 [AM(37-52)NH2 [S45W, K46L, S48G, Q50W, Y52F]] ?
Solution: 1250 nM

Exercise: What does the record list as Ki for FVPTDVGPWSY-NH2 [CGRP(27-37)NH2 [N31D, S34P, K35W, A36S, F37Y]] ?
Solution: 324 nM

Source listed as patent US20180141989A1.
